Tested on: S. aureus UNT96, NRS710, MP-618 (USA 100, Erythro >8)
assay.procedure: MIC determination
Format: cell-based
protocol.conditions: Staphylococcus aureus
experimental.readout: MIC

molecule | target.entity | value.reported
CSC1O[C@H]([C@H](NC(=O)[C@H]2NC[C@@H]3CN(Cc4ccccc4)CCO[C@H]32)[C@H](C)Cl)C(O)[C@@H](O)[C@H]1O (stereo partly shown) | S. aureus UNT96, NRS710, MP-618 (USA 100, Erythro >8) | > 64 µg/mL
CSC1O[C@H]([C@H](NC(=O)[C@H]2NC[C@@H]3C[C@H]4OC(C)(C)O[C@H]4CO[C@H]32)[C@H](C)Cl)C(O)[C@@H](O)[C@H]1O (stereo partly shown) | S. aureus UNT96, NRS710, MP-618 (USA 100, Erythro >8) | > 64 µg/mL
CSC1O[C@H]([C@H](NC(=O)[C@H]2NC[C@@H]3CC=CCO[C@H]32)[C@H](C)Cl)C(O)[C@@H](O)[C@H]1O (stereo partly shown) | S. aureus UNT96, NRS710, MP-618 (USA 100, Erythro >8) | > 32 µg/mL

Proceeding to the next molecule to report its MIC.
Returns the measured MIC for the input molecule. Input: CSC1O[C@H]([C@H](NC(=O)[C@H]2NC[C@@H]3C[C@@H](O)[C@@H](O)CO[C@H]32)[C@H](C)Cl)C(O)[C@@H](O)[C@H]1O (stereo partly shown)
> 64 µg/mL
